target: MMP-7 (Matrilysin) (Homo sapiens, UniProt P09237); assay: Ki determination with fluorogenic synthetic substrates, recombinant MMP-7; details: Tris/50 mM HCl buffer, pH 6.8, 10 mM CaCl2, 25° C.; read-out: affinity constant Ki, MMP-7 Matrilysin
Sequence (P09237 95-267): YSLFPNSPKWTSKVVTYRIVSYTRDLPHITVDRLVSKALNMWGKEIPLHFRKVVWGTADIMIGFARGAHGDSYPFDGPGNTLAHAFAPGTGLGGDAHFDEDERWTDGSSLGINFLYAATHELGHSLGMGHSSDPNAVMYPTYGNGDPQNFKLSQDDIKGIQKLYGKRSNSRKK
Measured Ki values are reported for all entries that follow.
MEASURE NAME: Ki (nM)

[
  {
    "COMPOUND": "NC(=O)C(Cc1c[nH]c2ccccc12)NC(=O)C(CCCc1ccccc1)CP(=O)(O)C(Cc1ccccc1)NC(=O)c1cc2c(Cl)cc(Cl)cc2[nH]1 (stereo not shown) [Compound 31]",
    "MEASURE NAME": "Ki",
    "ENDPOINT VALUE": 117
  },
  {
    "COMPOUND": "NC(=O)C(Cc1c[nH]c2ccccc12)NC(=O)C(CCCc1ccccc1)CP(=O)(O)C(Cc1ccccc1)NC(=O)c1ccc2ccccc2n1 (stereo not shown) [Compound 32]",
    "MEASURE NAME": "Ki",
    "ENDPOINT VALUE": 370
  },
  {
    "COMPOUND": "CC(C)CC(CP(=O)(O)C(Cc1ccccc1)NC(=O)OCc1ccccc1)C(=O)NC(Cc1c[nH]c2ccccc12)C(N)=O (stereo not shown) [Compound 13]",
    "MEASURE NAME": "Ki",
    "ENDPOINT VALUE": 210
  },
  {
    "COMPOUND": "NC(=O)C(Cc1c[nH]c2ccccc12)NC(=O)C(CCCc1ccccc1)CP(=O)(O)C(Cc1ccccc1)NC(=O)c1cc2ccccc2[nH]1 (stereo not shown) [Compound 30]",
    "MEASURE NAME": "Ki",
    "ENDPOINT VALUE": 605
  }
]
